- Target system: α-glucosidase (Saccharomyces cerevisiae, UniProt P53341)
- Construct: purchased Sigma-Aldrich (Shanghai, China) G5003-100UN
- Sequence (P53341 whole entry): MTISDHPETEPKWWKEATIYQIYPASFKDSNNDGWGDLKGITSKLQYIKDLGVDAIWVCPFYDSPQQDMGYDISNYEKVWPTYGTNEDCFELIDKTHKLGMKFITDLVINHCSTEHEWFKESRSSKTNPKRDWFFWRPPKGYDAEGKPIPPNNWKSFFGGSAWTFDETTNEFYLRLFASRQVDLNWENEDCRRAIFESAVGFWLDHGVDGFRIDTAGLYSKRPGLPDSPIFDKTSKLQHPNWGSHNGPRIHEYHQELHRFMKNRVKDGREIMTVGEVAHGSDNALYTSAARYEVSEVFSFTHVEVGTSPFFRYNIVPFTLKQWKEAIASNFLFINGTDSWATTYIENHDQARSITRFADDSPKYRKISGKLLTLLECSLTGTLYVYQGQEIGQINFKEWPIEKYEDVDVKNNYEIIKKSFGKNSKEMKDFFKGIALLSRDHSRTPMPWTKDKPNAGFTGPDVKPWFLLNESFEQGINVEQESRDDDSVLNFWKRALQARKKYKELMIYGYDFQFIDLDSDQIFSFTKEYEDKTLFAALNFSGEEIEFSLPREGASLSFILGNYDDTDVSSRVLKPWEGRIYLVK
- Assay protocol: α-glucosidase inhibitory assay (pNPG substrate, absorbance at 405 nm)
- Format: biochemical
- Test context: read-out: IC50
Entries annotated with measured IC50
Endpoint name: IC50 (µM)

C/C(=C\CCC(C)C1CCC2(C)C3CCC45OCC3(C(=O)CC12C)C4CCC(=O)C5C)C(=O)OC1OC(COC2OC(CO)C(O)C(O)C2O)C(O)C(O)C1O (stereo not drawn)    1030
CC(=CCCC(C)C1C(O)CC2(C)C3CCC4=C(C)C(=O)CCC4C3C(=O)CC12C)C(=O)OC1OC(COC2OC(CO)C(O)C(O)C2O)C(O)C(O)C1O (stereo not drawn)    1210
CC(=CCCC(C)C1CCC2(C)C3CCC4=C(C)C(=O)CCC4C3C(=O)CC12C)C(=O)OC1OC(COC2OC(CO)C(O)C(O)C2O)C(O)C(O)C1O (stereo not drawn)    430

---

- Target system: α-glucosidase (Saccharomyces cerevisiae)
- Construct: purchased Sigma-Aldrich (Shanghai, China) G5003-100UN
- Assay protocol: α-glucosidase inhibitory assay (pNPG substrate, absorbance at 405 nm)
- Assay type: biochemical
Endpoint name: IC50 (µM)

COc1cc(C[C@@H]2CO[C@@H](c3ccc(O)c(OC)c3)[C@@H]2CO)ccc1O [Compound 1, (-)-lariciresinol]    1830

---

- Target system: α-glucosidase (Saccharomyces cerevisiae, UniProt P53341)
- Construct: purchased Sigma-Aldrich (Shanghai, China) G5003-100UN
- Assay protocol: Affinity ultrafiltration coupled with HPLC (UF-HPLC), specific binding factor
- Test context: peaks of SGR2 (10 mg/mL) incubated with α-glucosidase; active vs denatured enzyme
Entries annotated with measured Specific Binding Factors Mean ± SD (n = 3)
Endpoint name: Specific Binding Factors Mean ± SD (n = 3) (%)

CC(=CCCC(C)C1C(O)CC2(C)C3CCC4=C(C)C(=O)CCC4C3C(=O)CC12C)C(=O)OC1OC(COC2OC(CO)C(O)C(O)C2O)C(O)C(O)C1O (stereo not drawn) [Compound 7, Siraitic acid II E]    3.46
C/C(=C\CCC(C)C1CCC2(C)C3CCC45OCC3(C(=O)CC12C)C4CCC(=O)C5C)C(=O)OC1OC(COC2OC(CO)C(O)C(O)C2O)C(O)C(O)C1O (stereo not drawn) [Compound 12, Siraitic acid II B]    6.65
CC(=O)OC(C)(C)CCC(=O)[C@](C)(O)[C@H]1[C@H](O)C[C@@]2(C)[C@@H]3CC=C4[C@@H](C[C@H](O)C(=O)C4(C)C)[C@]3(C)C(=O)C[C@]12C [Compound 16, 23,24-dihydrocucurbitacin B]    4.70

---

- Target system: α-glucosidase (Saccharomyces cerevisiae, UniProt P53341)
- Construct: purchased Sigma-Aldrich (Shanghai, China) G5003-100UN
- Assay protocol: α-glucosidase inhibitory assay (pNPG substrate, absorbance at 405 nm)
- Assay type: biochemical
- Test context: read-out: IC50
pIC50: −log10 of the molar value.
Entries annotated with measured pIC50
Endpoint name: pIC50

C/C(=C\CCC(C)C1CCC2(C)C3CCC45OCC3(C(=O)CC12C)C4CCC(O)C5C)C(=O)OC1OC(COC2OC(CO)C(O)C(O)C2O)C(O)C(O)C1O (stereo not drawn) [Compound 11, Siraitic acid II A]    2.91
COc1cc([C@@H]2Oc3c(OC)cc(/C=C/CO)cc3[C@H]2CO)ccc1O [Compound 2]    2.64
CC(=CCCC(C)C1CCC2(C)C3CCC4=C(C)C(=O)CCC4C3(C)C(=O)CC12C)C(=O)OC1OC(COC2OC(CO)C(O)C(O)C2O)C(O)C(O)C1O (stereo not drawn) [Compound 9, Siraitic acid II G]    2.80

---

- Target system: α-glucosidase (Saccharomyces cerevisiae)
- Construct: purchased Sigma-Aldrich (Shanghai, China) G5003-100UN
- Assay protocol: α-glucosidase inhibitory assay (pNPG substrate, absorbance at 405 nm)
- Assay type: biochemical
Endpoint name: inhibition at 1000 µg/mL (%)

CC(=O)OC(C)(C)CCC(=O)[C@](C)(O)[C@H]1[C@H](O)C[C@@]2(C)[C@@H]3CC=C4[C@@H](C[C@H](O)C(=O)C4(C)C)[C@]3(C)C(=O)C[C@]12C [Compound 16, 23,24-dihydrocucurbitacin B]    27.5
COc1cc(C[C@@H]2CO[C@@H](c3ccc(O)c(OC)c3)[C@@H]2CO)ccc1O [Compound 1, (-)-lariciresinol]    78.2
CC(=O)OC(C)(C)CCC(=O)[C@](C)(O)C1C(O)C[C@@]2(C)[C@@H]3CC=C4[C@@H](CC(=O)[C@@H](O)C4(C)C)[C@]3(C)C(=O)C[C@]12C (stereo partly shown) [Compound 17, Dihydroisocucurbitacin B-25-acetate]    23.7
C/C(=C\CCC(C)C1CCC2(C)C3CCC45OCC3(C(=O)CC12C)C4CCC(O)C5C)C(=O)OC1OC(COC2OC(CO)C(O)C(O)C2O)C(O)C(O)C1O (stereo not shown) [Compound 11, Siraitic acid II A]    50.6
C/C(=C\CCC(C)C1CCC2(C)C3CC=C4C(CCC(OC5OC(COC6OC(CO)C(O)C(O)C6O)C(O)C(O)C5O)C4(C)C)C3(C)C(=O)CC12C)C(=O)OC1OC(COC2OC(CO)C(O)C(O)C2O)C(O)C(O)C1O (stereo not shown) [Compound 8, Siraitic acid IV H]    23.4
CC(=CCCC(C)C1CCC2(C)C3CCC4=C(C)C(=O)CCC4C3C(=O)CC12C)C(=O)OC1OC(COC2OC(CO)C(O)C(O)C2O)C(O)C(O)C1O (stereo not shown) [Compound 14, Siraitic acid II C]    72
CC1=C2CCC3C(C)(C(=O)CC4(C)C(C(C)CC/C=C(\C)C(=O)OC5OC(CO)C(O)C(O)C5O)C(OC5OC(CO)C(O)C(O)C5O)CC34C)C2CCC1=O (stereo not shown) [Compound 6, Siraitic acid IIb E]    42.4
CC(=CCCC(C)C1CCC2(C)C3CCC4=C(C)C(=O)CCC4C3(C)C(=O)CC12C)C(=O)OC1OC(COC2OC(CO)C(O)C(O)C2O)C(O)C(O)C1O (stereo not shown) [Compound 9, Siraitic acid II G]    53.1
CC1=C2CCC3C(C)(C(=O)CC4(C)C(C(C)CC/C=C(\C)C(=O)OC5OC(COC6OC(CO)C(O)C(O)C6O)C(O)C(O)C5O)C(OC5OC(CO)C(O)C(O)C5O)CC34C)C2CCC1=O (stereo not shown) [Compound 4, Siraitic acid III E]    36.7
C/C(=C\CCC(C)C1CCC2(C)C3CCC45OCC3(C(=O)CC12C)C4CCC(=O)C5C)C(=O)OC1OC(COC2OC(CO)C(O)C(O)C2O)C(O)C(O)C1O (stereo not shown) [Compound 12, Siraitic acid II B]    51.3
CC(=CCCC(C)C1C(O)CC2(C)C3CCC4=C(C)C(=O)CCC4C3C(=O)CC12C)C(=O)OC1OC(COC2OC(CO)C(O)C(O)C2O)C(O)C(O)C1O (stereo not shown) [Compound 7, Siraitic acid II E]    58.5
COc1cc([C@@H]2Oc3c(OC)cc(/C=C/CO)cc3[C@H]2CO)ccc1O [Compound 2]    63.4
CC(=O)OC(C)(C)CCC(=O)[C@](C)(O)C1[C@H](O)C[C@@]2(C)[C@@H]3CC=C4[C@@H](CC(O)[C@@H](O)C4(C)C)[C@]3(C)C(=O)C[C@]12C (stereo partly shown) [Compound 13, 23,24-dihydrocucurbitacin F-25-acetate]    21.7

---

- Target system: α-glucosidase (Saccharomyces cerevisiae)
- Construct: purchased Sigma-Aldrich (Shanghai, China) G5003-100UN
- Assay protocol: Affinity ultrafiltration coupled with HPLC (UF-HPLC), specific binding factor
- Test context: peaks of SGR2 (10 mg/mL) incubated with α-glucosidase; active vs denatured enzyme
Endpoint name: Specific Binding Factors Mean ± SD (n = 3) (%)

C/C(=C\CCC(C)C1CCC2(C)C3CC=C4C(CCC(OC5OC(COC6OC(CO)C(O)C(O)C6O)C(O)C(O)C5O)C4(C)C)C3(C)C(=O)CC12C)C(=O)OC1OC(COC2OC(CO)C(O)C(O)C2O)C(O)C(O)C1O (stereo not shown)    0.27
COc1cc([C@@H]2Oc3c(OC)cc(/C=C/CO)cc3[C@H]2CO)ccc1O    1.87
CC(=CCCC(C)C1CCC2(C)C3CCC4=C(C)C(=O)CCC4C3(C)C(=O)CC12C)C(=O)OC1OC(COC2OC(CO)C(O)C(O)C2O)C(O)C(O)C1O (stereo not shown)    5.33
C/C(=C\CCC(C)C1CCC2(C)C3CCC45OCC3(C(=O)CC12C)C4CCC(O)C5C)C(=O)OC1OC(COC2OC(CO)C(O)C(O)C2O)C(O)C(O)C1O (stereo not shown)    6.59

The reported numbers originate from paper PMC10299727.
